Tested on: LOX IMVI melanoma
Test Name: NCI-60 one-dose screen, 48 h
Experimental Parameters: 10 µM unless noted
This is part of a sample that, as a whole, favours compounds with a hit. Of some 83,000 tested, about 20% had one in any assay. Calls of active or inactive are those of the source. The calls were made as follows: active = growth percent below 10; inactive = the rest.
In this exercise, the only acceptable responses are 1 = active, 0 = inactive

Q: Given `COc1ccc(C/C(C)=C(\c2ccc(Cl)cc2)c2ccc(OCCN3CCCC3)cc2)cc1` , state the outcome it received in this test.
Ans: 0

Q: # lookup: test call for `CS(=O)(=O)Nc1cc(-c2ccc3ncnc(Nc4ccc5c(cnn5Cc5ccccc5F)c4)c3c2)cnc1Cl`
Ans: 0

Q: GET /call?item= `Nc1[nH]nc2nc(-c3ccccc3)n3c4ccccc4nc3c12` returns the recorded outcome of this test.
Ans: 0

Q: State the result this test recorded for `CCOC(=O)C/C(=N\Nc1cc(=O)[nH]c2ccc(OC)cc12)C(=O)OCC` .
Ans: 0

Q: Which outcome was assigned to `Cc1cc(C(=O)CCCC(=O)c2cc(C)c(O)c(C)c2)cc(C)c1O` in this test?
Ans: 0

Q: Look up the recorded call for `COC(=O)Cn1c2c(c3c(OC)cccc31)C(=O)c1ccccc1-2` in this test.
Ans: 0

Q: Status in this test for `Cn1cc(-c2csc(-c3cn(C)c4ccccc34)n2)c2cnccc21` ?
Ans: 1

Q: What was the test verdict on `N#Cc1ccccc1-c1ccc(CN2C(=O)S/C(=C\c3ccc(Br)cc3)C2=O)cc1` ?
Ans: 0

Q: Could you check what this test reported for N#CC1=C(N)Oc2c(sc3c(F)cccc23)C1c1ccc([N+](=O)[O-])cc1 (stereo not given) ?
Ans: 1

Q: Which outcome did this test record for the molecule `Cn1cc(-c2csc(-c3cn(CCCN4CCOCC4)c4ccc(F)cc34)n2)c2cccnc21` ?
Ans: 0

Q: I'd appreciate the recorded outcome for CCN(CC)CCCC(Cc1ccccc1)Nc1c2ccc(Cl)cc2nc2ccc(OC)cc12 (stereo not given) from this test.
Ans: 1

Q: Hi, sorry to bother you, what did the test record for N#Cc1ccc(O)c(C2=NCC(c3ccc(-c4ccccc4)cc3)O2)c1 (stereo not given) ?
Ans: 0

Q: // param item: `CC1=C2[C@@H](CC1)[C@]1(C)O[C@@](C3CCNCC3)(C[C@H]1OC(=O)CO)[C@H]2OC(=O)/C=C/c1ccccc1` ; yields the recorded call
Ans: 0

Q: Called result for `COc1ccc(/C=N/Nc2c3ccccc3nc3ccccc23)cc1`
Ans: 0

Q: For this molecule, state the assay outcome: `CC[C@H](Nc1nc(N)nc(C)c1C#N)c1nc2cccc(CN(C)c3ncc(C(=O)NO)cn3)c2c(=O)n1-c1ccccc1`
Ans: 1

Q: Assay result, entry `Fc1ccc(/C=C/[C@@H]2C[C@@H](F)CCO2)cc1` — outcome?
Ans: 0

Q: # outcome recorded in this test, key = `Ic1ccc(Nc2nc3nonc3nc2Nc2ccc(I)cc2)cc1`
Ans: 1

Q: Each molecule tested received a call. Report the one for CC(O)CNC(Cc1ccccc1)c1ccc2c(c1)OCO2 (stereo not given) .
Ans: 0

Q: Please let me know the test result on file for `COC12C=C/C(=C(/C(=O)OCc3cncnc3)C(=O)CCCCCCCCC3(OC)C=C/C(=C(/C(=O)OCc4cncnc4)C(=O)CCCCCCCC1)O3)O2` .
Ans: 1

Q: # fetch the recorded call for `O=C(Nc1cccnc1Nc1ccc(Cl)cc1)c1cn(Cc2cccc(Oc3ccccc3)c2)nn1` here
Ans: 0

Q: Test call, this molecule: `O=C(Nc1ccc(Nc2ccncc2)cc1)c1ccc(Nc2ccnc3ccc([N+](=O)[O-])cc23)cc1`
Ans: 0

Q: Field: outcome | Entry: `O=C(O)c1cn(C2CC2)c2cc(N3CCN(C(=O)N4CCOCC4)CC3)c(F)cc2c1=O`
Ans: 0

Q: Hi team, can someone confirm the assay call for `CC(=O)c1ccc(-n2cc(CN3CCN(c4cc5c(cc4F)c(=O)c(C(=O)O)cn5C4CC4)CC3)nn2)cc1` ?
Ans: 0

Q: Could you check what this test reported for `Clc1ccc(-c2nc(C(Cl)Cl)nc3cc(-c4ccccc4)nn23)cc1` ?
Ans: 0

Q: Hi team, can someone confirm the assay call for `Cc1ccc(NC(=O)c2cc3ccccc3cc2O)c(C)c1` ?
Ans: 0

Q: Short answer needed: outcome of this test for C=CC(CC(c1ccccc1)(c1ccccc1)c1ccccc1)N(CC)CC (stereo not given) ?
Ans: 0

Q: Would you mind telling me which call this test gave `c1cc(OCCN2CCCCC2)ccc1CNc1ccc2nc(CCC3CCCCC3)[nH]c2c1` ?
Ans: 1

Q: Please indicate how the test categorized `Cc1ccc(S(=O)(=O)OC[C@]23CCC(C)(C)C[C@H]2C2=CC[C@@H]4[C@@]5(C)CCCNC(C)(C)[C@@H]5CC[C@@]4(C)[C@]2(C)CC3)cc1` .
Ans: 1

Q: Lab log entry: `COc1nc(/C=C\Nc2ccc3c(c2)OCCOCCOCCOCCO3)nc(OC)n1` — outcome as called in the assay?
Ans: 0

Q: Write down the call the test reported for this molecule. Item: `NCCCNc1nc2ccccc2c2c(=O)c3cc(Cl)ccc3sc12`
Ans: 1

---

Test system: BT-549 breast
Test Name: NCI-60 one-dose screen, 48 h (100 = growth as untreated, 0 = no growth, -100 = all killed)
Experimental Parameters: 10 µM unless noted
About 83,000 compounds went through this panel and 20% of them were active in at least one assay; those are over-represented in the sample as a whole.
Please note: growth exactly at 50% is not satisfied. Only values below 50% get satisfied.

Q: # strict comparison: is reported growth < 50%? input = `c1ccc(-c2c(-c3ccccc3)[n+](Cc3ccc4ccccc4c3)cn2Cc2ccc3ccccc3c2)cc1`
Ans: satisfied

Q: Quick check: growth of COC1C(O)CC(OC2CC(OC3CC(O[C@@H]4C(=O)c5c(cc6cc(OC7CC(OC8CC(O)C(O)C(C)O8)C(O)C(C)O7)c(C)c(O)c6c5O)CC4[C@H](OC)C(=O)O)OC(C)C3O)OC(C)C2O)OC1C (stereo not given in full) under 50%?
Ans: satisfied

Q: Hello, is growth of the following compound strictly smaller than 50%? `Cc1ccc(S(=O)(=O)OCC#CCOS(=O)(=O)c2ccc(C)cc2)cc1`
Ans: not satisfied

Q: Does the reported growth of `COc1ccc(-c2cc(-c3cc(OC)ccc3OC)nc(SCC(C)=O)c2C#N)cc1` stay below 50%?
Ans: not satisfied

---

Test system: HOP-62 NSCLC
Test Name: NCI-60 one-dose screen, 48 h (100 = growth as untreated, 0 = no growth, -100 = all killed)
Experimental Parameters: 10 µM unless noted
About 83,000 compounds went through this panel and 20% of them were active in at least one assay; those are over-represented in the sample as a whole.
Observed Property: growth (%)
# value in %; strip the unit string

Q: Provide one value: measured growth of `COc1cc(-c2ccc(-c3ccc(C(=N)N)cc3)s2)cc(OC)c1OC`
Ans: 59.1

Q: Using known records, supply growth for `COc1cc(Cc2cc(OC)c(O)c(OC)c2)cc(OC)c1O`
Ans: 88.9

Q: Return value of growth for input CCOC(=O)c1cnn(CC(C)O)c1NC(=O)NCc1ccccc1C(F)(F)F (stereo not given) , no commentary.
Ans: 102

Q: Please give the documented growth of `Cc1ccc(-c2csc(NC(=O)CSc3nc(N)cc(N)n3)n2)cc1`
Ans: 50.9

Q: Please indicate growth recorded for `O=C(NCCCCO)c1cncnc1Nc1ccc2c(ccn2Cc2cccc(F)c2)c1`
Ans: 94.4

Q: State its growth: CCn1cc(C(=O)N/N=C/c2ccccc2)c(=O)c2cc(F)c(N3CCNC(C)C3)c(F)c21 (stereo not given)
Ans: 68.6

Q: Query growth for `Cn1c2ccccc2c2c3c(c4c5cc(Br)ccc5n(C)c4c21)C(=O)N(O)C3=O`
Ans: 0.364

Q: Hello, please tell me recorded growth for this one: `Cc1c(O)cc(-c2cnc(N/N=C/c3ccccc3)s2)c(O)c1C`
Ans: 107

Q: Find the measured growth of `CNCCCNc1nc2ccccc2c2c(=O)c3cc(Cl)ccc3sc12` and report it.
Ans: 60.5

Q: Identify measured growth associated with `Cc1cc(O)cc(-c2nn(C)cc2-c2cc(N3CCOCC3)nc(-c3cccnc3)n2)c1`
Ans: 49.3

Q: Look up and state reported growth for N#CC1=C(N)Oc2c(sc3c(F)cccc23)C1c1ccc([N+](=O)[O-])cc1 (stereo not given)
Ans: -33.4

Q: Identify growth associated with the compound CNC(=O)NCC1OC(n2cnc3c(NC(=O)Nc4ccccc4)ncnc32)C2OC(=O)CC12 (stereo not given)
Ans: 94.2

Q: Supply reported growth belonging to this compound: `COc1cccc(CNc2c3ccccc3nc3ccccc23)c1OC`
Ans: 51.2

Q: Note growth for the compound shown: `CN1c2ccccc2S(=O)(=O)n2c(SCC(=O)Nc3nc4ccc(F)cc4s3)nnc21`
Ans: 103

Q: State its growth for this compound: O=CN1N=C(c2cccc(Nc3ccnc4cc(Cl)ccc34)c2)CC1c1ccc(Cl)cc1 (stereo not given)
Ans: 24.2
